Test system: KM12 colon
procedure_text: NCI-60 one-dose screen, 48 h (100 = growth as untreated, 0 = no growth, -100 = all killed)
test_context: 10 µM unless noted
Compounds without any hit were thinned out: in the full panel of roughly 83,000, 20% have a hit. Calls of active or inactive are those of the source. Rule for the calls: active = growth percent below 10; inactive = the rest.
readout_name: growth

molecule	tgt	readout_name	reported_result
CN(C)S(=O)(=O)n1cnc([C@@H]2[C@@H]3C(=O)OC[C@@H]3C[C@]23N=CN(Cc2ccccc2)C3=O)c1	KM12 colon	growth	104% (inactive)
C#CC[C@H](N)C(=O)O	KM12 colon	growth	105% [20 µM] (inactive)
C=C1C(=O)O[C@H]2[C@H]1CC/C(COC(=O)/C=C/C(=O)NCc1ccc(Cn3c(=O)sn(-c4ccccc4)c3=O)cc1)=C\CC[C@@]1(C)O[C@@H]21	KM12 colon	growth	49.1% (inactive)

Consider now this further molecule.
[Q] Can you look up the measured growth of CO/C(=C1/NC(=O)C(Cc2ccc(O)c(Br)c2)N(C)C(=O)C(C)NC(=O)CCC/C=C(\C)CCC(C)OC1=O)c1ccccc1 (centres undefined) for me?
[A] 26.9% (inactive)
